biological target: Protein farnesyltransferase (Mus musculus, UniProt Q61239+Q8K2I1); experiment: Inhibition of Ras farnesylation in H-Ras transformed NIH3T3 cells; format: functional, cell-based
pEC50: −log10 of the molar value.

[
  {
    "molecule": "NC(=O)N1CCC(CC(=O)N2CCC([C@H]3c4ncc(Br)cc4CCc4cc(Cl)cc(Br)c43)CC2)CC1 [LONAFARNIB]",
    "pEC50": 7.00
  }
]

====

target: Protein farnesyltransferase (Mus musculus, UniProt Q61239+Q8K2I1); test: Inhibition of Ras farnesylation in H-Ras transformed NIH3T3 cells; format: functional, cell-based; settings: nih3t3

[
  {
    "smiles.entry": "Cn1cncc1[C@@](N)(c1ccc(Cl)cc1)c1ccc2c(c1)c(-c1cccc(Cl)c1)cc(=O)n2C",
    "study.system": "Protein farnesyltransferase (Mus musculus, UniProt Q61239+Q8K2I1)",
    "value.units": "nM",
    "EC50": 1.6
  }
]

====

target: Geranylgeranyl transferase type I (Bos taurus, UniProt P29702+Q5EAD5); assay: Inhibition of Bovine geranylgeranyltransferase (GGT); assay type: protein-complex assay
pIC50: −log10 of the molar value.
# pIC50 per record follows

[
  {
    "compound": "Cn1cncc1C(OCc1cc(=O)c(C#N)cn1-c1cccc(Cl)c1)c1ccc(C#N)cc1 (stereo not given)",
    "pIC50": "< 5.00"
  },
  {
    "compound": "Cn1cncc1C(O)(c1ccc(Cl)cc1)c1ccc2c(=O)c(C#N)cn(-c3cccc(Cl)c3)c2c1 (stereo not given)",
    "pIC50": 4.80
  },
  {
    "compound": "NC(=O)N1CCC(CC(=O)N2CCC([C@H]3c4ncc(Br)cc4CCc4cc(Cl)cc(Br)c43)CC2)CC1",
    "pIC50": "< 5.00"
  },
  {
    "compound": "Cn1c(CNCc2cncn2Cc2ccc(C#N)cc2)c(-c2cccc(Cl)c2)cc(C#N)c1=O",
    "pIC50": "< 5.00"
  },
  {
    "compound": "N#Cc1ccc(Cn2cncc2CNCc2cc(=O)c(C#N)cn2-c2cccc(Cl)c2)cc1",
    "pIC50": "< 5.00"
  }
]

====

molecular target: Protein farnesyltransferase (Bos taurus, UniProt P29702+P49355); assay: Inhibition of Bovine farnesyltransferase (FTase)
Decision: IC50 beneath 10 nM gives t; IC50 meeting or exceeding 10 nM gives f.

[
  {
    "compound": "Cn1cncc1C(OCc1cc(=O)c(C#N)cn1-c1cccc(Cl)c1)c1ccc(C#N)cc1 (stereo unspecified)",
    "class.assignment": "f"
  },
  {
    "compound": "Cn1cncc1C(O)(c1ccc(Cl)cc1)c1ccc2c(=O)c(C#N)cn(-c3cccc(Cl)c3)c2c1 (stereo unspecified)",
    "class.assignment": "f"
  },
  {
    "compound": "Cn1cncc1C(NC(=O)c1cn(C)c(=O)cc1-c1cccc(Cl)c1)c1ccc(C#N)cc1 (stereo unspecified)",
    "class.assignment": "f"
  },
  {
    "compound": "N#Cc1ccc(Cn2cncc2CNCc2cc(=O)c(C#N)cn2-c2cccc(Cl)c2)cc1",
    "class.assignment": "t"
  },
  {
    "compound": "Cn1c(CNCc2cncn2Cc2ccc(C#N)cc2)c(-c2cccc(Cl)c2)cc(C#N)c1=O",
    "class.assignment": "f"
  },
  {
    "compound": "NC(=O)N1CCC(CC(=O)N2CCC([C@H]3c4ncc(Br)cc4CCc4cc(Cl)cc(Br)c43)CC2)CC1 [LONAFARNIB]",
    "class.assignment": "t"
  }
]
